Assay: Drug uptake in rat liver at 5 mg/kg, po after 4 hrs
Type: ADME, organism-based
Set-up: dose 5 mg/kg, route oral
Settings: read-out: Drug uptake
endpoint.name: concentration at 4 h (nM)

- CCN(CC)[C@@H](C(=O)N1CCC[C@H]1c1ncc(-c2ccc(-c3ccc(-c4cnc([C@@H]5CCCN5C(=O)[C@H](C)NC(=O)OC)[nH]4)cc3)cc2)[nH]1)c1ccccc1: 1830

(I) COC(=O)N[C@@H](C(=O)N1CCC[C@H]1c1ncc(-c2ccc(-c3ccc(-c4cnc([C@@H]5CCCN5C(=O)[C@H]5CCCO5)[nH]4)cc3)cc2)[nH]1)c1ccccc1
(II) CC[C@H](NC(=O)OC)C(=O)N1CCC[C@H]1c1ncc(-c2ccc(-c3ccc(-c4cnc([C@@H]5CCCN5C(=O)[C@@H](c5ccccc5)N(CC)CC)[nH]4)cc3)cc2)[nH]1
(III) COC(=O)N[C@@H](C)C(=O)N1CCC[C@H]1c1ncc(-c2ccc(-c3ccc(-c4cnc([C@@H]5CCCN5C(=O)[C@H](C)NC(=O)OC)[nH]4)cc3)cc2)[nH]1
(IV) COC(=O)N[C@@H](C(=O)N1CCC[C@H]1c1ncc(-c2ccc(-c3ccc(-c4cnc([C@@H]5CCCN5C(=O)[C@@H]5CCCO5)[nH]4)cc3)cc2)[nH]1)c1ccccc1
[Q] Arrange by concentration at 4 h, high to low. Please express your ranking as an ordered list of the labels.
[A] I, IV, II, III
